Data origin: PubChem BioAssay (EPA / NIEHS)

Read-out: TIMP metallopeptidase inhibitor 1 (TIMP1), TIMP1 (gene 7076)
METHOD: BSK_MyoF_TIMP1: BioMAP Diversity Plus: MyoF Assay for TIMP metallopeptidase inhibitor 1 (TIMP1) Biomarker Activity (AID 2284269)
SETUP_CONDITIONS: primary human lung fibroblasts
Calls of active or inactive are those of the source. How the source made its calls: active means hit-call score of the fitted dose curve at least 0.9, where 1 is the maximum; inactive means score below 0.9.
Outcomes: active, inactive

{"MOL": "CC/C=C\\CCOC(=O)c1ccccc1O", "ANSWER_LABEL": "active"}
{"MOL": "CCCCCCCO", "ANSWER_LABEL": "inactive"}
{"MOL": "CC1=CC=C(C(C)C)CC1", "ANSWER_LABEL": "inactive"}
{"MOL": "CC1(C)CC(O)CC(C)(C)N1[O]", "ANSWER_LABEL": "inactive"}
{"MOL": "CC/C=C\\C/C=C\\C/C=C\\CCCCCCCC(=O)OC", "ANSWER_LABEL": "active"}
{"MOL": "CCCCC1C(=O)N(c2ccccc2)N(c2ccccc2)C1=O", "ANSWER_LABEL": "inactive"}
{"MOL": "c1ccc2c(c1)[nH]c1ccccc12", "ANSWER_LABEL": "inactive"}
{"MOL": "Oc1ccc(/C=C/c2cc(O)cc(O)c2)cc1", "ANSWER_LABEL": "inactive"}
